Source listed as patent US20250034269A1.

Molecular target: human LTBR on cells (human, UniProt P36941 31-435)
Assay: cell-based or functional assay
This section presents binders with their documented NFκB luc, 3750 ng/ml, with x linker values.
Write it as a number; the unit RLU goes unstated.

A selection of reference data follows.
Binder	Recorded result
P1AE1873 (CBE11) (antibody, human IgG1, kappa, L234A L235A, V domains shown) VH: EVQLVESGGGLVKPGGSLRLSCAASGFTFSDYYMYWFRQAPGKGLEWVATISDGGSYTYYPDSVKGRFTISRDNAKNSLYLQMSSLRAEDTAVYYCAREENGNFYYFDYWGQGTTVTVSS VL: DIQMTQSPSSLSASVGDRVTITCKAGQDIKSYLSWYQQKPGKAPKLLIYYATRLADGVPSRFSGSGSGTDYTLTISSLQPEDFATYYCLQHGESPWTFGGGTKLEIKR	69900
P1AE9452 (antibody, human IgG1, kappa, L234A L235A, V domains shown, human IgG1 PG LALA; from transgenic rabbit immunization; also called LTBR (9452)) VH: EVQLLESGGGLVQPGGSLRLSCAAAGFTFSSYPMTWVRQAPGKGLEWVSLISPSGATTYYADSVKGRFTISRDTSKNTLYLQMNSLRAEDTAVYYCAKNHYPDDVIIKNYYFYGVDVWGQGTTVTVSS VL: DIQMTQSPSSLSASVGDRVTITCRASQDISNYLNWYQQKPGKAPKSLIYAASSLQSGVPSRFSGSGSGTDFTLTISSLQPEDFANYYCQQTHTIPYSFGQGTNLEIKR	28300

Challenge: Dear colleague, I am looking for the recorded NFκB luc, 3750 ng/ml, with x linker of the following binder: P1AF0064 (antibody, human IgG1, kappa, L234A L235A, V domains shown, human IgG1 PG LALA constant regions; V domains from rat immunization; also called LTBR (0064)) VH: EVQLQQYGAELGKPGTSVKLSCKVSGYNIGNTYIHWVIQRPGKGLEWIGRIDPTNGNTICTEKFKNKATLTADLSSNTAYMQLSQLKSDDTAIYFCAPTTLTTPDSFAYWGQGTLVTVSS VL: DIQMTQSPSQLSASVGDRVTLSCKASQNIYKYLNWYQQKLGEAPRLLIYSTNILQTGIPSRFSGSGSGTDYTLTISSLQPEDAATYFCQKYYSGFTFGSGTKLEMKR
Response given: 53300
